Recorded values, source the supplement of paper PMC3334620.

Target: Ybr033w (UniProt P38073)
Sequence: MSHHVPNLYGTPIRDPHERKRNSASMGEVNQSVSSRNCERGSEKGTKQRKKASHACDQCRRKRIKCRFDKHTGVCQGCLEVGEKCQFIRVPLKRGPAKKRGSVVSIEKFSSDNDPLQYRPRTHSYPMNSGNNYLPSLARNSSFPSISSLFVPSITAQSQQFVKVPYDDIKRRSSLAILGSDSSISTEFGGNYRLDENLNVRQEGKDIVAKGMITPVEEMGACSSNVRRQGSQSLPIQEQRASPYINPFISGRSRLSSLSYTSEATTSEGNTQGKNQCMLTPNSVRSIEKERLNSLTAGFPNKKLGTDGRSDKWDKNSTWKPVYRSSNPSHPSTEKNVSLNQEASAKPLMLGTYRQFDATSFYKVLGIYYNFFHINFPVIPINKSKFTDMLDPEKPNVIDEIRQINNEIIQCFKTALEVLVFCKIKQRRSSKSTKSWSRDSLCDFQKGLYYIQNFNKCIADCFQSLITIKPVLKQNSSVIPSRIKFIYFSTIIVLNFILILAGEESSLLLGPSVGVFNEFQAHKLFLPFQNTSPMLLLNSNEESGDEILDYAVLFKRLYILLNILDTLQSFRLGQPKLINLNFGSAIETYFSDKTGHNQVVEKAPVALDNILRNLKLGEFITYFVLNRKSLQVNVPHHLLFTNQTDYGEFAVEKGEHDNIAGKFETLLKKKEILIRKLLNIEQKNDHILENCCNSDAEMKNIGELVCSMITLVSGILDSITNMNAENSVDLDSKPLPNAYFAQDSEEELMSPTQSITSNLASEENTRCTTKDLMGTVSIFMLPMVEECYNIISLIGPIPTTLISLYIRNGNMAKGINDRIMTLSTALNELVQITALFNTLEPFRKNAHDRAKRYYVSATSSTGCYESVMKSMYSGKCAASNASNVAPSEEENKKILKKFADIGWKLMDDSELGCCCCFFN
Test: PBM E-score (8-mer binding enrichment) (E-score (-0.5 to 0.5)); higher = stronger / more preferred TF binding
Settings: protein concentration: 200 nM; construct: GST-full length
In all, about 33,000 sequences were measured (“E-score (-0.5 to 0.5)”: median about -0.012, highest 2% from about 0.29 on). For the sample, the highest values were picked, then their nearest neighbours and some sequences at random.
propertyLabel: PBM E-score
// response body must contain only the number

Record excerpt, results attached:
GGAACGAA 0.104
ACATAAGC 0.0339
ATTGATGG 0.213

Task: Request the reported PBM E-score associated with ACAATGCC
Output: -0.0228

Task: Request the reported PBM E-score associated with GTACGCTA
Output: -0.178

Task: Request the reported PBM E-score associated with ACCATGAC
Output: -0.0754

Task: Request the reported PBM E-score associated with CCCCTTTC
Output: -0.262

Task: Request the reported PBM E-score associated with AATGCCAA
Output: 0.112

Task: Request the reported PBM E-score associated with GGGTCCTA
Output: -0.279

Task: Request the reported PBM E-score associated with CCGAATAA
Output: 0.293

Task: Request the reported PBM E-score associated with ATCATGAC
Output: 0.0647

Task: Request the reported PBM E-score associated with AATTATCT
Output: 0.264

Task: Request the reported PBM E-score associated with ATAACTGC
Output: 0.193

Task: Request the reported PBM E-score associated with CCATCTGA
Output: 0.0862

Task: Request the reported PBM E-score associated with AGGCAGTG
Output: -0.0313

Task: Request the reported PBM E-score associated with AGTTGGAA
Output: 0.124

Task: Request the reported PBM E-score associated with CCACAGGC
Output: -0.336

Task: Request the reported PBM E-score associated with AATCAGCT
Output: 0.185

Task: Request the reported PBM E-score associated with CAAATCCG
Output: 0.0419

Task: Request the reported PBM E-score associated with CTTGTAGA
Output: -0.145

Task: Request the reported PBM E-score associated with GTTGTAGA
Output: 0.00414

Task: Request the reported PBM E-score associated with ACTTTAAT
Output: 0.114
